All values here come from patent EP0980535B1.

TEST_METHOD_NOTES: Photochromic properties of the compound in the (co)polymer matrix under xenon lamp exposure
Type: physicochemical
CONDITION: transmission before exposure; same conditions as compound (I)
ENDPOINT_NAME: T0 (%)
Give bare numbers, in %.

// each listed compound needs a value for T0 (%)
1. COc1ccc(C2(c3ccc(OC)cc3)C=Cc3c(cc(N4CCOCC4)c4ccccc34)O2)cc1 [Compound C1, reference compound]
2. COc1ccc(C2(c3ccc(C(F)(F)F)cc3)C=Cc3c(cc(N4CCOCC4)c4ccccc34)O2)cc1 (stereo not shown) [Compound C2, reference compound]
3. COc1ccc(C2(c3ccccc3)C=Cc3c(cc(N4CCOCC4)c4ccccc34)O2)cc1 (stereo not shown) [Compound (II)]
4. COc1ccc(C2(c3ccccc3)C=Cc3c(cc(N4CCCCC4)c4ccccc34)O2)cc1 (stereo not shown) [Compound C3, reference compound]

1. 74
2. 68
3. 79
4. 79
